Where these numbers come from: paper PMC8954547

Experiment: Radioligand stability in mice (radio-HPLC of blood and urine)
Assay type: in vivo
Settings: mice blood collected 5 min pi; mean ± SD
The entries below come with measured Intact radioligand in blood values attached.

Worked cases, answers included:
CC(C)(C)C(=O)CN1C(=O)[C@H](NC(=O)Nc2cccc(C(=O)NCCOCCOCCOCCNC(=O)[C@H](CCC(=O)O)NC(=O)CN3CCN(CC(=O)[O-])CCN(CC(=O)[O-])CCN(CC(=O)[O-])CC3)c2)CN(C2CCCCC2)c2ccccc21.[67Ga+3] (stereo in doubt) [[^67Ga]Ga-GAS1] : 93.9 ± 0.6 (3) %
CC(C)(C)C(=O)CN1C(=O)[C@H](NC(=O)Nc2cccc(C(=O)NCCOCCOCCOCCNC(=O)[C@H](CCC(=O)O)NC(=O)CCC(C(=O)O)N3CCN(CC(=O)[O-])CCN(CC(=O)[O-])CCN(CC(=O)[O-])CC3)c2)CN(C2CCCCC2)c2ccccc21.[177Lu+3] (stereo in doubt) [[^177Lu]Lu-GAS3] : 95.8 ± 2.0 (3) %
CC(C)(C)C(=O)CN1C(=O)[C@H](NC(=O)Nc2cccc(C(=O)NCCOCCOCCOCCNC(=O)[C@H](CCC(=O)O)NC(=O)CN3CCN(CC(=O)[O-])CCN(CC(=O)[O-])CCN(CC(=O)[O-])CC3)c2)CN(C2CCCCC2)c2ccccc21.[111In+3] (stereo in doubt) [[^111In]In-GAS1] : 84.6 ± 2.4 (3) %

// query Please indicate Intact radioligand in blood recorded for CC(C)(C)C(=O)CN1C(=O)[C@H](NC(=O)Nc2cccc(C(=O)NCCOCCOCCOCCNC(=O)[C@H](CCC(=O)O)NC(=O)CCC(C(=O)[O-])N3CCN(CC(=O)[O-])CCN(CC(=O)[O-])CC3)c2)CN(C2CCCCC2)c2ccccc21.[67Ga+3] (stereo in doubt) [[^67Ga]Ga-GAS2]
// result 96.3 ± 3.7 (3) %
